Test system: S. pneumoniae
Assay: Biological activity against bacterial strains: S. pneumoniae
Format: cell-based, Streptococcus pneumoniae
Parameters: unit not given here
Settings: strain ATCC49619
Listed here are molecules together with their documented Biological Activity, S. pneumoniae ATCC49619.
Output: the number by itself.

As a guide, the following entries are already answered.
CCC1OC(=O)CC(O)C(C)C(OC2OC(C)C(O)C(N(C)C)C2O)C(CCN2CC(C)CC(C)C2)CC(C)C(=NOCCCCOc2ccc3ncccc3c2)C=CC(C)=CC1CO (single isomer, unassigned) [Compound U] | 12.5
CC[C@H]1OC(=O)C[C@@H](O)[C@H](C)[C@@H](O[C@@H]2O[C@H](C)[C@@H](O)[C@H](N(C)C)[C@H]2O)[C@@H](CCN2C[C@H](C)C[C@H](C)C2)C[C@@H](C)C(=O)/C=C/C(C)=C/[C@@H]1CO[C@@H]1O[C@H](C)[C@@H](O)[C@@H](OC)[C@H]1OC [Tilm, tilmicosin, reference compound] | 1.56
CCC1OC(=O)CC(O)C(C)C(OC2OC(C)C(O)C(N(C)C)C2O)C(CCN2CC(C)CC(C)C2)CC(C)C(=NOCCCOc2ccc3ncccc3c2)C=CC(C)=CC1CO (stereo not drawn) [Compound S] | 6.25
CCC1OC(=O)CC(O)C(C)C(OC2OC(C)C(O)C(N(C)C)C2O)C(CCN2CC(C)CC(C)C2)CC(C)C(=NOCCCOc2ccc3ncccc3c2)C=CC(C)=CC1COC1OC(C)C(O)C(OC)C1OC (single isomer, unassigned) [Compound K] | 0.098
CC[C@H]1OC(=O)C[C@@H](O)[C@H](C)[C@@H](O[C@@H]2O[C@H](C)[C@@H](O)[C@H](N(C)C)[C@H]2O)[C@@H](CC=O)C[C@@H](C)C(=O)/C=C/C(C)=C/[C@@H]1CO [OMT, 5-O-mycaminosyltylonolide, reference compound] | 0.098

Query molecule follows.
Requested read-out: Biological Activity, S. pneumoniae ATCC49619. Entry: CCC1OC(=O)CC(O)C(C)C(OC2OC(C)C(O)C(N(C)C)C2O)C(CC=O)CC(C)C(=NOCCCOc2ccc3ncccc3c2)C=CC(C)=CC1CO (stereo not drawn)
0.01

* * *

Tested on: S. pneumoniae
Assay: Biological activity against bacterial strains: S. pneumoniae
Type: cell-based, Streptococcus pneumoniae
Set-up: unit not given here
Conditions: strain ATCC49619
Assay Endpoint: Biological Activity, S. pneumoniae ATCC49619
Enter a number only.

Please review the following examples before continuing.
CCC1OC(=O)CC(O)C(C)C(OC2OC(C)C(O)C(N(C)C)C2O)C(CC=O)CC(C)C(=NOCCCOc2ccc3ncccc3c2)C=CC(C)=CC1COC(=O)NCc1ccccc1 (stereo not drawn) | 0.049
CCC1OC(=O)CC(O)C(C)C(OC2OC(C)C(O)C(N(C)C)C2O)C(CC=O)CC(C)C(=NOCC(=O)N2CCN(c3ccccc3)CC2)C=CC(C)=CC1CO (stereo not drawn) | 0.01

Pending compound:
Give its Biological Activity, S. pneumoniae ATCC49619 value. Item: CCC1OC(=O)CC(O)C(C)C(OC2OC(C)C(O)C(N(C)C)C2O)C(CC=O)CC(C)C(=NOCC=Cc2cnc3ccccc3c2)C=CC(C)=CC1CO (single isomer, unassigned) [Compound G]
0.025

* * *

System: S. aureus
Assay: Biological activity against bacterial strains: S. aureus
Type: cell-based, Staphylococcus aureus
Set-up: unit not given here
Conditions: strain ATCC6538p
Assay Endpoint: Biological Activity, S. aureus ATCC6538p
Note: the reply should be a number with no unit written.

CCC1OC(=O)CC(O)C(C)C(OC2OC(C)C(O)C(N(C)C)C2O)C(CCN2CC(C)CC(C)C2)CC(C)C(=O)C=CC(C)=CC1CO (stereo not drawn) [Compound 8, 20-Deoxy(3,5-dimethyl-1-piperidine)OMT, reference compound] | 0.39
CCC1OC(=O)CC(O)C(C)C(OC2OC(C)C(O)C(N(C)C)C2O)C(CC=O)CC(C)C(=NOCCCCOc2ccc3ncccc3c2)C=CC(C)=CC1COC(=O)NCc1ccccc1 (stereo not drawn) | 3.12

Fill in the blank: the reported Biological Activity, S. aureus ATCC6538p of CCC1OC(=O)CC(O)C(C)C(OC2OC(C)C(O)C(N(C)C)C2O)C(CC=O)CC(C)C(=NOCCCOc2ccc3ncccc3c2)C=CC(C)=CC1COC1OC(C)C(O)C(OC)C1OC (single isomer, unassigned) [Compound BB] is ____.
0.2
